Reference source for all entries: patent US9981983B2

System: PC3 cells
experimental-details: PC3 prostate cancer cell proliferation (WST)
Format: cell-based
condition-info: Homo sapiens, PC-3; 72 hours; read-out: IC50 PC3 Proliferation
pIC50: −log10 of the molar value.
Use 5 as the dividing line for pIC50, with the line itself on the criterion met side and lower values as criterion not met.

Ask: Textbook exercise: given the entry O=C(Nc1ccccc1)c1csc2c(=O)cc(N3CCOCC3)oc12 , state whether its pIC50 is greater than or equal to 5.
Reply: criterion not met

Ask: Try this molecule too: O=C(Nc1cccnc1)c1ccc(-c2csc3c(=O)cc(N4CCOCC4)oc23)cc1
Reply: criterion not met

Ask: Try this molecule too: O=c1cc(N2CCOCC2)oc2c(-c3ccc(Cl)c(Cl)c3)csc12
Reply: criterion not met

Ask: Try this molecule too: CN(C)c1ccc(C(=O)Nc2cccc(-c3csc4c(=O)cc(N5CCOCC5)oc34)c2)cc1
Reply: criterion met

Ask: Try this molecule too: CN(C(=O)OC(C)(C)C)c1ccc(-c2csc3c(=O)cc(N4CCOCC4)oc23)cc1
Reply: criterion met
